# PROTOCOL DESCRIPTION: clinical
# TEST CONTEXT: human, in vivo
RESULT TYPE: concentration at 6 day (ng/mL)
Give the value, in units of ng/mL, as a plain number.

Check out these entries, answers already filled in.
For O=C1O[C@H]([C@@H](O)CO)C(O)=C1O , write its concentration at 6 day.
36.2

For COc1ccc2c(c1)[C@]13CCCC[C@@H]1[C@H](C2)N(C)CC3 , write its concentration at 6 day.
0.501

For Cc1cc2nc3c(=O)[nH]c(=O)nc-3n(C[C@H](O)[C@H](O)[C@H](O)CO)c2cc1C , write its concentration at 6 day.
85.5

For CN(C)C(=O)C(CCN1CCC(O)(c2ccc(Cl)cc2)CC1)(c1ccccc1)c1ccccc1 [Loperamide] , write its concentration at 6 day.
0.112

For CN(C)CCOC(c1ccccc1)c1ccccc1 [Diphenhydramine] , write its concentration at 6 day.
227

For NC(N)=Nc1nc(CSCCC(N)=NS(N)(=O)=O)cs1 , write its concentration at 6 day.
0.34

Kindly review the next compound as well.
For CNC(=C[N+](=O)[O-])NCCSCc1ccc(CN(C)C)o1 , write its concentration at 6 day.
0.176

----------
# PROTOCOL DESCRIPTION: clinical
# TEST CONTEXT: human, in vivo, 3 day
RESULT TYPE: Subject C, Urine Results (ng/m)
Give the value, in units of ng/m, as a plain number.

For CN(C)CCOC(c1ccccc1)c1ccccc1 [Diphenhydramine] , write its Subject C, Urine Results.
0

For NC(N)=Nc1nc(CSCCC(N)=NS(N)(=O)=O)cs1 [Famotidine] , write its Subject C, Urine Results.
0

Continuing:
For CNC(=C[N+](=O)[O-])NCCSCc1ccc(CN(C)C)o1 [Ranitidine] , write its Subject C, Urine Results.
492

For O=C1O[C@H]([C@@H](O)CO)C(O)=C1O [Ascorbic Acid] , write its Subject C, Urine Results.
1947

For Cc1cc2nc3c(=O)[nH]c(=O)nc-3n(C[C@H](O)[C@H](O)[C@H](O)CO)c2cc1C [Riboflavin] , write its Subject C, Urine Results.
3150

----------
# PROTOCOL DESCRIPTION: clinical
# TEST CONTEXT: human, in vivo, Subject A, Urine Results
RESULT TYPE: concentration at 5 day
Show the value, then the unit it is measured in.

For CN(C)CCOC(c1ccccc1)c1ccccc1 [Diphenhydramine] , write its concentration at 5 day.
0 ng/mL

----------
Reported concentration at 2 day values for the following molecules.
# PROTOCOL DESCRIPTION: clinical
# TEST CONTEXT: human, in vivo

For Cc1cc2nc3c(=O)[nH]c(=O)nc-3n(C[C@H](O)[C@H](O)[C@H](O)CO)c2cc1C , write its concentration at 2 day.
92 ng/mL

For NC(N)=Nc1nc(CSCCC(N)=NS(N)(=O)=O)cs1 , write its concentration at 2 day.
0 ng/mL

For CNC(=C[N+](=O)[O-])NCCSCc1ccc(CN(C)C)o1 , write its concentration at 2 day.
16.8 ng/mL

Continuing:
For CN(C)CCOC(c1ccccc1)c1ccccc1 [Diphenhydramine] , write its concentration at 2 day.
0 ng/mL

For COc1ccc2c(c1)[C@]13CCCC[C@@H]1[C@H](C2)N(C)CC3 , write its concentration at 2 day.
0 ng/mL

For CN(C)C(=O)C(CCN1CCC(O)(c2ccc(Cl)cc2)CC1)(c1ccccc1)c1ccccc1 [Loperamide] , write its concentration at 2 day.
0 ng/mL

For O=C1O[C@H]([C@@H](O)CO)C(O)=C1O , write its concentration at 2 day.
33.6 ng/mL
